# Tested on: VRE
# Measurement notes: Antibacterial MIC, double-dilution method
# Type: cell-based
# Test settings: Enterococcus, strain D, Gram-positive, converted from μM, read-out: MIC
Property measured: log10 MIC (log10 of the value in µg/mL)
// units: µg/mL (pre-log); metric: MIC; scale: log10

NCC[C@H](O)C(=O)N[C@@H]1C[C@H](N)[C@@H](O[C@H]2O[C@H](CN)[C@@H](O)[C@H](O)[C@H]2O)[C@H](O)[C@H]1O[C@H]1O[C@H](CO)[C@@H](O)[C@H](N)[C@H]1O [AMK, amikacin, reference compound]
1.99
C/C(=N\NC(=N)N)c1ccc(/C(C)=N/NC(=N)N)cc1.Cl.Cl [Compound 4G]
1.64
C/C(=N\NC(=N)N)c1ccc(-c2ccc(/C(C)=N/Nc3ccccc3Cl)cc2)cc1.Cl [Compound 8Aa]
0.23
Cl.Cl.N=C(N)N/N=C/c1ccc(-c2ccc(/C=N/NC(=N)N)cc2)cc1 [Compound 3A]
-0.10

[Q] Provide value of log10 MIC for this record tested with VRE: C/C(=N\NC(=N)N)c1ccc2c(c1)Cc1cc(/C(C)=N/NC(=N)N)ccc1-2.Cl.Cl [Compound 4F]
[A] -0.40

[Q] Under VRE: log10 MIC value of C/C(=N\NC(=N)N)c1cccc(/C(C)=N/NC(=N)N)c1.Cl.Cl [Compound 4H] ?
[A] 1.64

[Q] Checklist item: log10 MIC tested on VRE, entry Cl.Cl.N=C(N)N/N=C/c1ccc(-c2cccc(/C=N/NC(=N)N)c2)cc1 [Compound 3B] , value?
[A] 0.18

---

# Tested on: C. albicans ATCC 2310
# Measurement notes: Antifungal MIC, CLSI M27-A3 microbroth dilution
# Assay type: cell-based, Candida albicans
# Test settings: Candida albicans, ATCC2310; C. albicans ATCC 2310, susceptible to FLC, ITC, and VOR; converted from μg/mL; read-out: MIC
Property measured: MIC (µM)
Provide the reading as a plain figure in µM.

A selection of reference data follows.
Cl.N=C(N)N/N=C/c1ccc(-c2ccc(C=NNc3ccccc3Cl)cc2)cc1 (mixture of isomers) [Compound 7Aa, monohydrochloride]
4.6
C/C(=N\NC(=N)N)c1ccc(Oc2ccc(/C(C)=N/NC(=N)N)cc2)cc1.Cl.Cl [Compound 4E, dihydrochloride]
17.8
C/C(=N\NC(=N)N)c1ccc2c(c1)Cc1cc(/C(C)=N/NC(=N)N)ccc1-2.Cl.Cl [Compound 4F, dihydrochloride]
2.3

[Q] Reported MIC for Cl.N=C(N)N/N=C/c1ccc(-c2ccc(/C=N/Nc3ccccc3Br)cc2)cc1 [Compound 7Ab, monohydrochloride] : what is it?
[A] 8.3

[Q] Endpoint output: MIC of C/C(=N\NC(=N)N)c1ccc(Cc2ccc(/C(C)=N/NC(=N)N)cc2)cc1.Cl.Cl [Compound 4C, dihydrochloride] . Value?
[A] 17.8

[Q] Could you tell me which MIC is on file for Cl.Cl.N=C(N)N/N=C/c1ccc(-c2cccc(/C=N/NC(=N)N)c2)cc1 [Compound 3B, dihydrochloride] ?
[A] 9.9

[Q] May I ask what MIC has been recorded for C/C(=N\NC(=N)N)c1ccc(-c2ccc(/C(C)=N/Nc3ccccc3Cl)cc2)cc1.Cl [Compound 8Aa, hydrochloride] ?
[A] 34.3

[Q] Name the recorded MIC for Cl.N#Cc1ccc(N/N=C/c2ccc(-c3ccc(/C=N/NC(=N)N)cc3)cc2)cc1 [Compound 7Ae, monohydrochloride] .
[A] 37.3

---

Below is a list of entries, each paired with its recorded MIC value.
# System: K. pneumoniae ATCC 27736
# Measurement notes: Antibacterial MIC, double-dilution method
# Assay type: cell-based
# Test settings: Klebsiella pneumoniae, ATCC27736; strain H, Gram-negative; range 0.5 to 500 μM; read-out: MIC

Reference set (2 entries):
Cl.Cl.N=C(N)N/N=C/c1ccc(-c2ccc(/C=N/NC(=N)N)cc2)cc1 [Compound 3A, dihydrochloride]
> 500 µM
C/C(=N\NC(=N)N)c1ccc(CCc2ccc(/C(C)=N/NC(=N)N)cc2)cc1.Cl.Cl [Compound 4D, dihydrochloride]
> 500 µM

Now examine the next entry.
[Q] State the recorded MIC for this entry: C/C(=N\NC(=N)N)c1ccc(-c2ccc(/C(C)=N/Nc3ccccc3Cl)cc2)cc1.Cl [Compound 8Aa, hydrochloride]
[A] 62.5 to 125 µM

---

A collection of compounds and their measured MIC
# System: MRSA
# Measurement notes: Antibacterial MIC, double-dilution method
# Format: cell-based
# Test settings: Staphylococcus aureus, strain C, Gram-positive, range 0.5 to 500 μM, read-out: MIC

C/C(=N\NC(=N)N)c1ccc2c(c1)Cc1cc(/C(C)=N/NC(=N)N)ccc1-2.Cl.Cl [Compound 4F, dihydrochloride]
1 to 2 µM
Cl.N#Cc1ccc(N/N=C/c2ccc(-c3ccc(/C=N/NC(=N)N)cc3)cc2)cc1 [Compound 7Ae, monohydrochloride]
15.6 µM
Cl.Cl.N=C(N)N/N=C/c1ccc(-c2cccc(/C=N/NC(=N)N)c2)cc1 [Compound 3B, dihydrochloride]
3.9 µM

[Q] Recorded MIC for Cl.N=C(N)N/N=C/c1ccc(-c2ccc(/C=N/Nc3ccc(Cl)cc3)cc2)cc1 [Compound 7Ad, monohydrochloride] , please?
[A] 7.8 µM

---

# Test system: MRSA
# Measurement notes: Antibacterial MIC, double-dilution method
# Format: cell-based
# Test settings: Staphylococcus aureus, strain C, Gram-positive, range 0.5 to 500 μM, read-out: MIC
Property measured: MIC (µM)
Answer in µM, number only, no unit symbol.

Below, each entry is followed by its recorded MIC result.
Cl.N=C(N)N/N=C/c1ccc(-c2ccc(/C=N/Nc3ccc(F)cc3F)cc2)cc1 [Compound 7Af, monohydrochloride]
3.9
Cl.Cl.N=C(N)N/N=C/c1ccc(-c2ccc(/C=N/NC(=N)N)cc2)cc1 [Compound 3A, dihydrochloride]
3.9

[Q] Consider the compound Cl.N=C(N)N/N=C/c1ccc(-c2ccc(/C=N/Nc3ccccc3Br)cc2)cc1 [Compound 7Ab, monohydrochloride] and give its measured MIC.
[A] 2

[Q] I would be grateful if you could share the reported MIC for CC1(C)S[C@@H]2[C@H](NC(=O)[C@H](N)c3ccccc3)C(=O)N2[C@H]1C(=O)O [AMP, ampicillin, reference compound] .
[A] 250

[Q] Entry C/C(=N\NC(=N)N)c1ccc(Cc2ccc(/C(C)=N/NC(=N)N)cc2)cc1.Cl.Cl [Compound 4C, dihydrochloride] has what MIC?
[A] 3.9

[Q] # input compound: Cl.N=C(N)N/N=C/c1ccc(-c2ccc(/C=N/Nc3ccc(Cl)cc3Cl)cc2)cc1 [Compound 7Ag, hydrochloride] ; wanted: its MIC
[A] 7.8

---

# Tested on: C. albicans ATCC 1237
# Measurement notes: Antifungal MIC, CLSI M27-A3 microbroth dilution
# Assay type: cell-based, Candida albicans
# Test settings: Candida albicans, ATCC1237, C. albicans ATCC 1237, resistant to FLC, ITC, and VOR; converted from μg/mL; read-out: MIC
MIC reference
# include the unit after the value

Examples with their reported MIC follow.
C/C(=N\NC(=N)N)c1ccc(-c2ccc(/C(C)=N/Nc3ccccc3Cl)cc2)cc1.Cl [Compound 8Aa, hydrochloride]
34.3 µM
Cl.N=C(N)N/N=C/c1ccc(-c2ccc(C=NNc3ccccc3Cl)cc2)cc1 (mixture of isomers) [Compound 7Aa, monohydrochloride]
9.2 µM
C/C(=N\NC(=N)N)c1ccc2c(c1)Cc1cc(/C(C)=N/NC(=N)N)ccc1-2.Cl.Cl [Compound 4F, dihydrochloride]
4.6 µM

Now look at this one.
[Q] Could you tell me which MIC is on file for Cl.N=C(N)N/N=C/c1ccc(-c2ccc(/C=N/Nc3ccc(F)cc3F)cc2)cc1 [Compound 7Af, monohydrochloride] ?
[A] 9.1 µM

---

# Tgt: hERG channel (Homo sapiens, UniProt Q12809)
# Sequence (Q12809 whole entry): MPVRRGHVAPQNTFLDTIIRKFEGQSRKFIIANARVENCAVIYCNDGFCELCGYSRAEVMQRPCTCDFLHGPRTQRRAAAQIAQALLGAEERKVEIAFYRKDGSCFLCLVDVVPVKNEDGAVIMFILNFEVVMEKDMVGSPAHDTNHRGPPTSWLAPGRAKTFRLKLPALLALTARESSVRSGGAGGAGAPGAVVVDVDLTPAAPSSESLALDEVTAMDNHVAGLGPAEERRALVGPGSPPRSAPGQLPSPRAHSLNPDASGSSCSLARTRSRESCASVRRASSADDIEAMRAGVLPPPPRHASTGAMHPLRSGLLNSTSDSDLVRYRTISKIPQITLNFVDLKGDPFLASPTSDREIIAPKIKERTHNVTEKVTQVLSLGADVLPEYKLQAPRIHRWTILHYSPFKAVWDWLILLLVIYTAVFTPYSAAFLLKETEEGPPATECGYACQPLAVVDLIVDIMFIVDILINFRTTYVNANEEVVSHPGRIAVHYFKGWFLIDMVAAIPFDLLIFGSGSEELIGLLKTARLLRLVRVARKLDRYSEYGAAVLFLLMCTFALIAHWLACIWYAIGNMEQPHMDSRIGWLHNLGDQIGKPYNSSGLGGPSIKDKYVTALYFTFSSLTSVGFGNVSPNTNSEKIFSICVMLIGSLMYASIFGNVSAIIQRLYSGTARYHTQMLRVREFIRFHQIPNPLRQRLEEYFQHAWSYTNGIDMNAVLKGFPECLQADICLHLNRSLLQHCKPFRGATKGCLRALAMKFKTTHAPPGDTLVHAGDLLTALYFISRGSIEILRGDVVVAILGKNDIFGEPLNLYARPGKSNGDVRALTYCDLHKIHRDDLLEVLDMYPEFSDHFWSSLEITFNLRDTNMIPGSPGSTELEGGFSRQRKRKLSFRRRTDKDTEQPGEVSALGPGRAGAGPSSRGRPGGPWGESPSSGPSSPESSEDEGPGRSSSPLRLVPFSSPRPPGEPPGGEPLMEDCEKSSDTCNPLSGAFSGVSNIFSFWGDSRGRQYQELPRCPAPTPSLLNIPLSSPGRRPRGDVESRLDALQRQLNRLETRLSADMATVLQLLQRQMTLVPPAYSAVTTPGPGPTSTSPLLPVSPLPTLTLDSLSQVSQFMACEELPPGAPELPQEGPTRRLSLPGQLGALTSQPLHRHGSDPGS
# Measurement notes: in vitro
# Test settings: pH 7.4
Property measured: IC50 at 60 min (nM)
Respond with the bare value in nM.

[Q] Value lookup for IC50 at 60 min; key = Cl.N=C(N)N/N=C/c1ccc(-c2ccc(C=NNc3ccccc3Cl)cc2)cc1 (mixture of isomers) [Compound 7Aa, monohydrochloride]
[A] 1140

---

# System: B. subtilis 168
# Measurement notes: Antibacterial MIC, double-dilution method
# Type: cell-based
# Test settings: Bacillus subtilis, strain A, Gram-positive, range 0.5 to 500 μM
Measured MIC accompanies every entry in the list below.

Example entries begin here.
Cl.N#Cc1ccc(N/N=C/c2ccc(-c3ccc(/C=N/NC(=N)N)cc3)cc2)cc1 [Compound 7Ae, monohydrochloride]
31.3 µM
C/C(=N\NC(=N)N)c1ccc(Cc2ccc(/C(C)=N/NC(=N)N)cc2)cc1.Cl.Cl [Compound 4C, dihydrochloride]
> 500 µM

[Q] Fill in: MIC of Cl.N=C(N)N/N=C/c1ccc(-c2ccc(C=NNc3ccccc3Cl)cc2)cc1 (mixture of isomers) [Compound 7Aa, monohydrochloride] is ___
[A] > 500 µM

// provenance: patent US10173968B2
